protocol: Competitive inhibition of Saccharomyces cerevisiae alpha-glucosidase using p-nitrophenyl-alpha-D-glucopyranoside as substrate by Lineweaver-Burk plot analysis
property: Ki (µM)
Dear colleague, please return just the value in µM, with no unit written.

What measured Ki goes with Cc1ccc(S(=O)(=O)N(CCO)CCOc2c(O)cc(-c3oc4cc(O)cc(O)c4c(=O)c3O)cc2O)cc1 ? 10.3

----------
Listing: pIC50 of selected molecules
protocol: Inhibition of Saccharomyces cerevisiae alpha-glucosidase using p-nitrophenyl-alpha-D-glucopyranoside as substrate preincubated for 10 mins followed by substrate addition measured after 30 mins by microplate reader analysis
Keep it numeric: pIC50 is minus log10 of the concentration in mol/L.

molecule	pIC50
O=c1c(O)c(-c2cc(O)c(OCCOCCO)c(O)c2)oc2cc(O)cc(O)c12	4.36
O=c1c(O)c(-c2cc(O)c(O)c(O)c2)oc2cc(O)cc(O)c12 [MYRICETIN]	3.50
Cc1ccc(S(=O)(=O)N(CCO)CCOc2c(O)cc(-c3oc4cc(O)cc(O)c4c(=O)c3O)cc2O)cc1	5.03
O=C1c2c(O)cc(O)cc2O[C@H](c2cc(O)c(O)c(O)c2)[C@H]1O [AMPELOPSIN]	3.20
C[C@@H]1O[C@@H](O[C@@H]2[C@@H](O)[C@H](O)[C@H](O[C@H]3[C@H](O)[C@@H](O)C(O)O[C@@H]3CO)O[C@H]2CO)[C@@H](O)[C@H](O)[C@H]1N[C@H]1C=C(CO)[C@@H](O)[C@H](O)[C@H]1O (some centres not stated)	3.14

What measured pIC50 goes with C[C@@H]1O[C@@H](Oc2c(-c3cc(O)c(O)c(O)c3)oc3cc(O)cc(O)c3c2=O)[C@H](O)[C@H](O)[C@H]1O ? 3.08

What measured pIC50 goes with O=c1c(O)c(-c2cc(O)c(OCCOCCOCCOCCO)c(O)c2)oc2cc(O)cc(O)c12 ? 3.33
